Below is a list of entries, each paired with its recorded IC50 value.
study system: BRD4(BD1) (Homo sapiens (Human), UniProt O60885)
method summary: In vitro enzyme inhibition assay (BRD4 AlphaScreen)
Format: binding
recorded conditions: in vitro enzyme inhibition assay

Use these answered entries as a reference point.
smiles string	IC50
CCS(=O)(=O)c1ccc(NCC2CC2)c(-c2cc(C)c(=O)n(C)c2)c1	< 500 nM
CCCCc1cnc(NS(=O)(=O)CC)nc1-c1cc(C)c(=O)n(C)c1	< 500 nM
Cn1cc(Oc2cc(-c3cc(S(C)(=O)=O)ccc3OCC3CC3)cn(C)c2=O)cn1	< 500 nM
Cn1cc(-c2cc(S(C)(=O)=O)cnc2OCC2CC2)c2ccccc2c1=O	< 500 nM
Cn1cc(-c2cc(S(C)(=O)=O)ccc2OCC2CC2)c2ncncc2c1=O	500 to 5000 nM

// moving on: another record for IC50
Query :: Give reported IC50 value for CCn1cc(-c2cc(S(C)(=O)=O)ccc2NCC2CC2)cc(C)c1=O
Result :: < 500 nM

----------
Below is a list of entries, each paired with its recorded pIC50 value.
study system: BRD4(BD1) (Homo sapiens (Human))
method summary: In vitro enzyme inhibition assay (BRD4 AlphaScreen)
Format: binding
recorded conditions: class symbols A/B/C
pIC50: −log10 of the molar value.

Query :: Give reported pIC50 value for Cn1cc(-c2cccc(NS(C)(=O)=O)c2)c2ccc(F)cc2c1=O
Result :: > 6.30

Query :: Give reported pIC50 value for CCS(=O)(=O)Nc1ccc(Cl)c(-c2cn(C)c(=O)c3ccc(F)cc23)c1
Result :: > 6.30

----------
Below is a list of entries, each paired with its recorded pIC50 value.
System: HL-60, human proleukemia cells
method summary: Cell-MTS proliferation assay, HL-60
Type: cell-based
recorded conditions: Homo sapiens, HL-60; Cell-MTS, 168 hr; class symbols A/B/C
pIC50: −log10 of the molar value.

Use these answered entries as a reference point.
smiles string	pIC50
CCS(=O)(=O)Nc1cccc(-c2cn(C)c(=O)c3ccc(-c4ccccn4)cc23)c1	> 6.30
Cn1cc(-c2cccc(S(=O)(=O)NCCO)c2)c2ccccc2c1=O	5.30 to 6.30

Query :: Give reported pIC50 value for CCS(=O)(=O)Nc1ccc(Oc2ccc(F)cc2F)c(-c2ccc(=O)n(C)c2)c1
Result :: > 6.30

Query :: Give reported pIC50 value for Cn1cc(-c2cc(S(C)(=O)=O)ccc2OCC2CC2)c2cc(F)ccc2c1=O
Result :: > 6.30

----------
Test system: HL-60, human proleukemia cells
method summary: Cell-MTS proliferation assay, HL-60
Assay type: cell-based
recorded conditions: Homo sapiens, HL-60; Cell-MTS, 168 hr; class symbols A/B/C
pIC50: −log10 of the molar value.
Below is a list of entries, each paired with its recorded pIC50 value.

Use these answered entries as a reference point.
smiles string	pIC50
CCS(=O)(=O)Nc1ccc(Cl)c(-c2cn(C)c(=O)c3ccc(F)cc23)c1	> 6.30
Cn1cc(-c2ccc3c(=O)n(C)cc(-c4cc(NS(C)(=O)=O)ccc4F)c3c2)cn1	> 6.30
CCS(=O)(=O)Nc1ccc(Oc2ccc(F)cc2F)c(-c2cc(F)c(=O)n(C)c2)c1	> 6.30
Cn1cc(-c2cccc(NS(C)(=O)=O)c2)c2ccncc2c1=O	5.30 to 6.30
COc1ccc(-c2cc(N)c(=O)n(C)c2)cc1NS(C)(=O)=O	< 5.30
Cn1cc(-c2cc(S(N)(=O)=O)ccc2Oc2ccc(F)cc2F)ccc1=O	> 6.30
Cn1cc(-c2cc(S(C)(=O)=O)ccc2Oc2ccc(F)cc2F)c2ccccc2c1=O	> 6.30
Cn1cc(-c2cc(S(C)(=O)=O)ccc2OCC2CC2)c2ccccc2c1=O	> 6.30

// moving on: another record for pIC50
Query :: Give reported pIC50 value for CCOc1ccc(S(N)(=O)=O)cc1-c1ccc(=O)n(C)c1
Result :: 5.30 to 6.30
